- Test system: HIPK2
- Setup Conditions: concentration: 1 μM, replicates: in singlicate; n = 1

| Molecule | %Inh, % |
| --- | --- |
| Cc1cccc(-c2nc(-c3ccc(S(C)(=O)=O)cc3)sc2-c2ccncc2)c1 | 0 |
| COc1cc2c(cc1OCCN1CCN(C)CC1)ncc1c3ccc(C#N)cc3[nH]c21 | 100 |
| Cc1cn2c(=O)cc(N3CCOCC3)nc2n1Cc1cccc(Cl)c1Cl | 0 |
| [2H]C([2H])(c1cccc(C(F)(F)F)c1C)n1ccn2c(=O)nc(N3CCOCC3)cc12 | 0 |
| Cc1nnc(-c2ccc3ncc(-c4ccc(S(C)=O)cc4)n3c2)o1 (centres unmarked) | 40 |

---

- Test system: TESK1;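 also: kd values determined as follow-up on hits from a single-replicate KINOMEscan panel screen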

| Molecule | Kd |
| --- | --- |
| O=C(NCCNc1ccnc(Nc2ccc(F)cc2)n1)c1cc2ccccc2s1 [GSK1379874] | > 10 µM |

---

- Tested on: OSR1
- Construct: gene OXSR1
- Setup Conditions: concentration: 1 μM, replicates: in singlicate; n = 1
// boundary case: %Inh equal to 4% maps to 0.0; strictly smaller maps to 1.0

| Compound | Qualitative Label |
| --- | --- |
| Cl.Oc1cccc(Nc2ccnc3cc(-c4ccncc4)ccc23)c1 [GW494601] | 1.0 |
| Cc1nnc(-c2ccc3ncc(-c4ccc(S(C)=O)cc4)n3c2)o1 (stereo not shown) | 0.0 |
| Cc1c2ccc(N(C)c3ccnc(Nc4cccc(S(N)(=O)=O)c4)n3)cc2nn1Cc1ccccc1.Cl.Cl [GW787226] | 1.0 |
| COC(=O)Nc1nc2cc(Oc3ccc(NC(=O)Nc4cc(F)ccc4F)cc3)ccc2[nH]1.Cl [GW701424] | 0.0 |
| O=C1NC(=O)C(N2CCc3ccccc32)=C1c1cccc(Cl)c1 [SB-408010] | 1.0 |
| Cc1nnc(-c2ccc3occ(-c4ccc(C(C)O)cc4)c3c2)o1 (stereo not shown) | 0.0 |
| COc1ccc(Nc2ncc(C#N)c(Nc3ccccc3C(N)=O)n2)cc1N1CCN(C)CC1.Cl [GSK1558669] | 0.0 |
| COc1ccc(Nc2nccc(N3CCC(NC(=O)Nc4cccc(C(C)=O)c4)C3)n2)cc1 (stereo not shown) [GSK1379731] | 0.0 |
| COc1ccc(Nc2nccc(N3CCC(NC(=O)Nc4cc(C)ccc4C)C3)n2)cc1 (stereo not shown) [GSK1379741] | 1.0 |
| Nc1nccc(-c2c(-c3ccc(F)cc3)ncn2C2CCN(CC(F)(F)F)CC2)n1 [SB-236560] | 1.0 |
| Cc1cccc(-c2nc(-c3ccc(S(C)(=O)=O)cc3)sc2-c2ccncc2)c1 | 1.0 |
| COc1cc2ncn(-c3cc(OCc4sccc4Cl)c(C(N)=O)s3)c2cc1OC [GSK448459] | 0.0 |
| [2H]C([2H])(c1cccc(C(F)(F)F)c1C)n1ccn2c(=O)nc(N3CCOCC3)cc12 [GSK2336394] | 0.0 |
| c1ccc(-c2cc(-c3c[nH]nc3-c3ccccn3)ccn2)cc1 [GW576604] | 1.0 |
| O=C(NOCC1CC1)c1ccc(F)c(F)c1Nc1ccc(I)cc1Cl | 1.0 |
| c1ccc(-c2n[nH]cc2-c2ccnc3ccccc23)nc1 [GW271431] | 0.0 |
| Cc1cccc(Cn2ccn3c(=O)cc(N4CCOCC4)nc23)c1 [GSK2297542] | 0.0 |
| Cc1c(Cn2c(C)nn3c(=O)cc(N4CCOC(C)C4)nc23)cccc1C(F)(F)F (stereo not shown) [GSK2344444] | 0.0 |
| O=c1cc(N2CCOCC2)nc2n(Cc3cccc(Cl)c3Cl)c(C3CC3)nn12 [GSK2358994] | 1.0 |
| NS(=O)(=O)c1cccc(-c2ccc3ncc(N4CCOCC4)nc3c2)c1 [GSK1535721] | 1.0 |
| Cc1ccc(NC(=O)c2ccnc(N3CCN(C)CC3)c2)cc1-c1ccc(C(=O)NCC2CC2)cc1 [GW775604] | 1.0 |
| O=C(c1ccc(-c2cc(-c3c[nH]nc3-c3ccccn3)ccn2)cc1)N1CCOCC1 [GW812171] | 1.0 |
| CN1c2ccc(CNc3ccc(F)cc3)cc2-c2c(cnn2C)S1(=O)=O | 1.0 |
| O=c1cc(N2CCOCC2)nc2n(Cc3cccc(F)c3)ccn12 [GSK2297430] | 1.0 |
| COc1ccc(S(=O)(=O)NC2CCN(c3cc(C)nc(Nc4cccc(C#N)c4)n3)CC2)cc1.O=C(O)C(F)(F)F [GSK1653539] | 1.0 |
| O=c1cc(N2CCOCC2)nc2n(Cc3cccc(C(F)(F)F)c3)ccn12 [GSK2297543] | 0.0 |
| O=C(NCCNc1ccnc(Nc2ccc(F)cc2)n1)Nc1ccccc1F [GSK1379880] | 0.0 |
| N#Cc1c(N2CCOCC2)sc(-c2ccn[nH]2)c1-c1ccc(Cl)cc1 | 1.0 |
| Cc1ccc(C(=O)NCC(N)=O)cc1-n1c(C)cc(OCc2ccc(F)cc2F)c(Br)c1=O | 1.0 |
| Cc1cn2c(=O)cc(N3CCOCC3)nc2n1Cc1cccc(Cl)c1Cl [GSK2334006] | 1.0 |
| CN(C(=O)c1ccc(-c2cc(-c3c[nH]nc3-c3ccccn3)ccn2)cc1)C1CCOCC1 [GW810083] | 1.0 |
| COc1ccc(COc2cc(-n3cnc4ccccc43)sc2C(N)=O)cc1 [GSK1024304] | 0.0 |
| O=C(NCCNc1ccnc(Nc2ccc(F)cc2)n1)c1cc2ccccc2s1 [GSK1379874] | 0.0 |

---

Recorded %Inh for the following compounds
- System: BIKE
- Construct: gene BMP2K
- Setup Conditions: concentration: 1 μM, replicates: in singlicate; n = 1

| Compound | %Inh [%] |
| --- | --- |
| CNc1ncnc2[nH]ncc12 [SKF-18355] | 0 |
| COc1ccc(Nc2nccc(N3CCC(NC(=O)Nc4cc(C)ccc4C)C3)n2)cc1 (centres unmarked) [GSK1379741] | 0 |
| [2H]C([2H])(c1cccc(C(F)(F)F)c1C)n1ccn2c(=O)nc(N3CCOCC3)cc12 [GSK2336394] | 23 |
| COc1cc2c(cc1OCCN1CCN(C)CC1)ncc1c3ccc(C#N)cc3[nH]c21 | 100 |
| Cl.Oc1cccc(Nc2ccnc3cc(-c4ccncc4)ccc23)c1 [GW494601] | 7 |

---

Overview of recorded %Inh for various compounds
- System: MUSK
- Setup Conditions: concentration: 1 μM, replicates: in singlicate; n = 1

| Compound | %Inh [%] |
| --- | --- |
| Nc1nc(-c2ccc3c(N)n[nH]c3c2)cc(N2CCCC2)n1 [GSK2227430] | 0 |
| Cn1cc(-c2ccc3c(c2)CCN3C(=O)Cc2ccccc2Cl)c2c(N)ncnc21 [GSK2608885] | 29 |
| CNc1ncnc2[nH]ncc12 [SKF-18355] | 14 |
| Cc1cccc(-c2nc(-c3ccc(S(C)(=O)=O)cc3)sc2-c2ccncc2)c1 | 0 |
| COc1ccc(Nc2ncc(C#N)c(Nc3ccccc3C(N)=O)n2)cc1N1CCN(C)CC1.Cl [GSK1558669] | 80 |
| COc1cc(Nc2nccc(N3CCC(NC(=O)c4cccc(NC(C)=O)c4)C3)n2)cc(OC)c1OC (stereo not drawn) [GSK1379754] | 12 |
| CCCCCc1nc2c(N)ncnc2n1CCCCC [SKF-97255] | 0 |
| O=C(NCCNc1ccnc(Nc2ccc(F)cc2)n1)c1cc2ccccc2s1 [GSK1379874] | 0 |
| COc1cc2c(cc1OC[C@@H](O)CO)ncc1c3ccc(C#N)cc3[nH]c21 | 0 |
| COCCNC(=O)c1ccc(-c2cc(C(=O)NC3CC3)cc(F)c2C)cc1 [GW868318] | 28 |
| O=C(Nc1n[nH]c2cc(-c3cccc(F)c3)ccc12)C1CC1 [SB-735464] | 0 |
| O=c1cc(N2CCOCC2)nc2n(Cc3cccc(C(F)(F)F)c3)ccn12 [GSK2297543] | 3 |
| O=C1NC(=O)C(N2CCc3ccccc32)=C1c1cccc(Cl)c1 [SB-408010] | 0 |
| [2H]C([2H])(c1cccc(C(F)(F)F)c1C)n1ccn2c(=O)nc(N3CCOCC3)cc12 [GSK2336394] | 8 |
| Cc1ccc(C(=O)NCC(N)=O)cc1-n1c(C)cc(OCc2ccc(F)cc2F)c(Br)c1=O | 0 |
| C[C@@H](Oc1cc(-n2cnc3ccc(NC(=O)NC(C)(C)C)cc32)sc1C(N)=O)c1ccccc1Cl [GSK346294] | 6 |
| CCn1cnc2c(N)ncnc21 [GW345098] | 2 |
| Nc1nccc(-c2c(-c3ccc(F)cc3)ncn2C2CCN(CC(F)(F)F)CC2)n1 [SB-236560] | 22 |

---

- System: TRKA
- Construct: gene NTRK1
- Setup Conditions: concentration: 1 μM, replicates: in singlicate; n = 1

| Substance Smiles | Tgt | Units | %Inh |
| --- | --- | --- | --- |
| Fc1ccc(-c2ncn(CCCN3CCOCC3)c2-c2cccnc2)cc1 | TRKA | % | 0 |
| Cc1ccc(NC(=O)c2ccnc(N3CCN(C)CC3)c2)cc1-c1ccc(C(=O)NCC2CC2)cc1 | TRKA | % | 0 |
| COc1ccc(S(=O)(=O)NC2CCN(c3cc(C)nc(Nc4cccc(C#N)c4)n3)CC2)cc1.O=C(O)C(F)(F)F | TRKA | % | 7 |
| Cc1c2ccc(N(C)c3ccnc(Nc4cccc(S(N)(=O)=O)c4)n3)cc2nn1Cc1ccccc1.Cl.Cl | TRKA | % | 0 |
